- target_or_system: αvβ6 (Homo sapiens, UniProt P06756+P18564)
- Sequence (P06756 31-992 limits assumed): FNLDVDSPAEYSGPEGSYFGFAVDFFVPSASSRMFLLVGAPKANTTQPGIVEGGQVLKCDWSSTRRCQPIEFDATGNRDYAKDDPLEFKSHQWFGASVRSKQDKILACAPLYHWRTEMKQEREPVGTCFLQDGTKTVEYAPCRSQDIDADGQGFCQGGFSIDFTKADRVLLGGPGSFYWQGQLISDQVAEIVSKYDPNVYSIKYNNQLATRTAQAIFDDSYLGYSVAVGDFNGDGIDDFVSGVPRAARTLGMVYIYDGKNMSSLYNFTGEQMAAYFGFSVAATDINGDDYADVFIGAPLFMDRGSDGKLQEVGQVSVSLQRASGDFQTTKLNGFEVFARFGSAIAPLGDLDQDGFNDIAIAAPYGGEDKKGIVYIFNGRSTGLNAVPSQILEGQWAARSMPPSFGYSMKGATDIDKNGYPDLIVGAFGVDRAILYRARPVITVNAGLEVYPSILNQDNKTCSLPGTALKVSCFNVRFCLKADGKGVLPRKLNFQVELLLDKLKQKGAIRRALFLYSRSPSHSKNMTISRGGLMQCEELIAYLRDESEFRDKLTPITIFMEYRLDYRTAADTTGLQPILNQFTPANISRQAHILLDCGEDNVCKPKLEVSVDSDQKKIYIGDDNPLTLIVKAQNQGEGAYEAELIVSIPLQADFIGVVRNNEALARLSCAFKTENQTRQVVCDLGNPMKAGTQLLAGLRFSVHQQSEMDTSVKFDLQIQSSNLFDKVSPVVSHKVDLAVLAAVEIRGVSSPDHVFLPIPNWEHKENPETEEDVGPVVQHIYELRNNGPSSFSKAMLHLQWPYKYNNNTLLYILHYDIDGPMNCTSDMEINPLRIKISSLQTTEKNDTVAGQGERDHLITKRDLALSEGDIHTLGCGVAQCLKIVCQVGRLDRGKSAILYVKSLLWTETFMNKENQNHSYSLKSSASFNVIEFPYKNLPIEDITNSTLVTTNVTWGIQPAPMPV
- Sequence (P18564 22-707 limits assumed): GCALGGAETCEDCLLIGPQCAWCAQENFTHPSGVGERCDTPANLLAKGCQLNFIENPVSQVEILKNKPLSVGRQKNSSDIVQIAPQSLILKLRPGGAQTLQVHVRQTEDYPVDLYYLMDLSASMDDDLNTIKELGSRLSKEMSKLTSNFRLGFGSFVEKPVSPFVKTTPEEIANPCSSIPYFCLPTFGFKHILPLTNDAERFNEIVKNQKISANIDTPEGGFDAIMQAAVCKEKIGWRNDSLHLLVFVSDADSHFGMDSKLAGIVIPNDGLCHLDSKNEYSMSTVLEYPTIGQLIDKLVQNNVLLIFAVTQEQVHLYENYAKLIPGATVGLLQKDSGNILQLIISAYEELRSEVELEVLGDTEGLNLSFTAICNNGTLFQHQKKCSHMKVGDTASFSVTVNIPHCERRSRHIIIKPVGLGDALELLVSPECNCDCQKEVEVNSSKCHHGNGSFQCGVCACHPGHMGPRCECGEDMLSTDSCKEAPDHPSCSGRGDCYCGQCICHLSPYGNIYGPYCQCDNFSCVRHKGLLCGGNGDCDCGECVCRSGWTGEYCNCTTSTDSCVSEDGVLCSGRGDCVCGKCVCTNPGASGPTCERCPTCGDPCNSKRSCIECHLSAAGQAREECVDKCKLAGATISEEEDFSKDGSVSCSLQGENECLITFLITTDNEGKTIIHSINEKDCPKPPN
- assay: Solid Phase Integrin αvβ6 Assay
pIC50: −log10 of the molar value. Where a name gives a salt, the structure may show the parent alone.
Examples of molecules with documented pIC50 follow.

O=C(N[C@@H](CNC(=O)[C@@H]1CCCN(CCCc2ccc3c(n2)NCCC3)C1)C(=O)O)c1c(Cl)cccc1Cl [Compound 362] | > 7.00
O=C(NC[C@H](C(=O)O)c1cccc(-c2ccccc2C(F)(F)F)c1)[C@@H]1CCCN(CCCc2ccc3c(n2)NCCC3)C1 [Compound 621] | > 7.00
O=C(NC[C@@H](C(=O)O)c1cccc2n[nH]cc12)[C@@H]1CCCN(CCCc2ccc3c(n2)NCCC3)C1 [Compound 319] | > 7.00
O=C(NC[C@@H](C(=O)O)c1ccc2ccccc2c1)[C@@H]1CCCN(CCCc2ccc3c(n2)NCCC3)C1 [Compound 249-B] | > 7.00
O=C(O)C[C@@H](CO[C@@H]1CCCN(CCCc2ccc3c(n2)NCCC3)C1)c1cccc([C@@H]2CCOC2)c1 [Compound 506] | > 7.00
O=C(NC[C@H](C(=O)O)c1cccc2c1cnn2CC1CC1)[C@@H]1CCCN(CCCc2ccc3c(n2)NCCC3)C1 [Compound 315] | > 7.00
O=C(O)C[C@@H](CC(=O)N[C@@H]1CCN(C(=O)CCCc2ccc3c(n2)NCCC3)C1)c1ccccc1 [Compound 417] | 6.00 to 7.00
O=C(O)[C@H](CCO[C@@H]1CCCN(CCCCc2ccc3c(n2)NCCC3)C1)NC(=O)C12CCC(CC1)CC2 [Compound 399] | > 7.00
O=C(O)[C@H](CCO[C@@H]1CCCN(CCCc2ccc3c(n2)NCCC3)C1)c1ccc(C2CC2)cc1 [Compound 516] | > 7.00
O=C(O)C[C@H](NC(=O)[C@@H]1CCCN(CCCc2ccc3c(n2)NCCC3)C1)c1cccc(OC2COC2)c1 [Compound 535] | > 7.00

Using the record for O=C(O)C[C@@H](CO[C@@H]1CCCN(CCCc2ccc3c(n2)NCCC3)C1)c1ccnc(C2CC2)c1 [Compound 514] , report its pIC50. > 7.00

pIC50 for C[C@@H]1C[C@@H](C(=O)NC[C@@H](C(=O)O)c2ccc3ccccc3c2)CN(CCCc2ccc3c(n2)NCCC3)C1 [Compound 639] ? 6.00 to 7.00

# get_value(readout='pIC50', item= O=C(O)C[C@H](NC(=O)[C@@H]1CCCN(C(=O)CCc2ccc3c(n2)NCCC3)C1)c1ccccc1 [Compound 289, hydrochloride] ) 6.00 to 7.00

Field request: pIC50 | item: O=C(O)C[C@H](CO[C@@H]1CCCN(CCc2ccc3c(n2)NCCC3)C1)c1ccccc1 [Compound 353] 6.00 to 7.00

I have this molecule here, CNC(=O)[C@H]1C[C@H](C(=O)N[C@@H](CC(=O)O)c2ccccc2)CN(CCCc2ccc3c(n2)NCCC3)C1 [Compound 607] , and I need its recorded pIC50. > 7.00

What value of pIC50 has been recorded for this entry: O=C(O)C[C@@H](NC(=O)[C@@H]1CCCN(CCCc2ccc3c(n2)NCCC3)C1)c1cccc2c1CCCC2 [Compound 212-B] > 7.00

What value of measured pIC50 is listed for O=C(O)C[C@@H](CO[C@@H]1CCCN(CCCc2ccc3c(n2)NCCC3)C1)c1cc(C2CC2)ccc1F [Compound 508] ? > 7.00

---

- target_or_system: αvβ6 (Homo sapiens, UniProt P06756+P18564)
- assay: Solid Phase Integrin αvβ6 Assay
Listing: IC50 of selected compounds

Before answering, review these 5 worked examples.
Cc1csc2ncnc(N[C@H](CCO[C@@H]3CCCN(CCCc4ccc5c(n4)NCCC5)C3)C(=O)O)c12 | < 100 nM
O=C(O)C[C@H](NC(=O)[C@@H]1CCCN(CCCc2ccc3c(n2)NCCC3)C1)c1cnc2ccccc2n1 | < 100 nM
O=C(O)C[C@@H](CO[C@@H]1CCCN(CCCc2ccc3c(n2)NCCC3)C1)c1cc(F)cc(C2CC2)c1 | < 100 nM
C[C@H]1C[C@@H](C(=O)NC[C@@H](C(=O)O)c2cccc(-c3ccccc3)c2)CN(CCCc2ccc3c(n2)NCCC3)C1 | 100 to 1000 nM
O=C(O)[C@H](CCO[C@@H]1CCCN(CCCc2ccc3c(n2)NCCC3)C1)Nc1ncnc2ccsc12 | 100 to 1000 nM

Consider the compound shown here: "O=C(NC[C@@H](C(=O)O)c1cnc2c(ccn2CC2CC2)c1)[C@@H]1CCCN(CCCc2ccc3c(n2)NCCC3)C1" What is its recorded IC50? < 100 nM

So what does the record say about IC50 for "O=C(NC[C@H](NC(=O)[C@@H]1CC2CCC1CC2)C(=O)O)[C@@H]1CCCN(CCCc2ccc3c(n2)NCCC3)C1" ? < 100 nM

---

- target_or_system: αvβ6 (Homo sapiens, UniProt P06756+P18564)
- assay: Solid Phase Integrin αvβ6 Assay
Counter-ions that a name gives are not always drawn.
measured_endpoint: IC50

# annotated cases, reported IC50 shown
O=C(O)C[C@@H](CO[C@@H]1CCCN(CCc2ccc3c(n2)NCCC3)C1)c1ccccc1 | > 1000 nM
O=C(NC[C@H](NC(=O)[C@H]1CC2CCC1CC2)C(=O)O)[C@@H]1CCCN(CCCc2ccc3c(n2)NCCC3)C1 | < 100 nM
O=C(O)C[C@@H](CO[C@H]1CCCN(CCCc2ccc3c(n2)NCCC3)C1)c1ccccc1 | 100 to 1000 nM
O=C(O)C[C@@H](NC(=O)[C@@H]1CCCN(CCCc2ccc3c(n2)NCCC3)C1)c1cc(F)cc(C2CC2)c1 | < 100 nM

What measured IC50 goes with "CC1(C)CCN(c2cccc([C@H](CO[C@@H]3CCCN(CCCc4ccc5c(n4)NCCC5)C3)CC(=O)O)c2)CC1" ? 100 to 1000 nM

// returns reported IC50 for input O=C(O)C[C@H](NC(=O)[C@@H]1CCCN(CCCc2ccc3c(n2)NCCC3)C1)c1cccc(C2CC2)c1 [Compound 224, hydrochloride] < 100 nM

Entry "O=C(NC[C@H](Nc1cc(-c2ccccc2)ncn1)C(=O)O)[C@@H]1CCCN(CCCc2ccc3c(n2)NCCC3)C1" : reported IC50 = ? < 100 nM

Need IC50 of "O=C(O)C[C@H](O[C@@H]1CCCN(Cc2ccc3c(n2)NCCC3)C1)c1ccccc1" , thanks. > 1000 nM

So what does the record say about IC50 for "O=C(NC[C@@H](C(=O)O)c1ccc2c(c1)CCCC2)[C@@H]1CCCN(CCCc2ccc3c(n2)NCCC3)C1" ? < 100 nM

Field request: IC50 | item: "O=C(NC[C@@H](C(=O)O)c1cccc2c1CCC2)[C@@H]1CCCN(CCCc2ccc3c(n2)NCCC3)C1" < 100 nM

Which IC50 value belongs to "O=C(NC[C@@H](C(=O)O)c1cc(F)cc(-c2cccc(F)c2)c1)[C@@H]1CCCN(CCCc2ccc3c(n2)NCCC3)C1" ? < 100 nM

Please look up its IC50: "O=C(NC[C@H](C(=O)O)c1cccc(-c2ccccc2)c1)[C@@H]1CCCN(CCCc2ccc3c(n2)NCCC3)C1" < 100 nM

Form field: reported IC50 of "O=C(NC[C@H](C(=O)O)c1cccc2cnn([C@H]3CCOC3)c12)[C@@H]1CCCN(CCCc2ccc3c(n2)NCCC3)C1" 100 to 1000 nM

Return reported IC50; argument: "O=C(CC[C@H](NC(=O)[C@H]1CCCN1S(=O)(=O)c1ccccc1)C(=O)O)N[C@H]1CCN(CCCCc2ccc3c(n2)NCCC3)C1" < 100 nM

I would be grateful if you could share the reported IC50 for "O=C(NC[C@@H](C(=O)O)c1ccc(-c2ccccc2)cc1)[C@@H]1CCCN(CCCc2ccc3c(n2)NCCC3)C1" . < 100 nM

What measured IC50 goes with "O=C(O)C[C@H](NC(=O)[C@@H]1CCCN(CCCc2ccc3c(n2)NCCC3)C1)c1cnc2ccccc2c1" ? 100 to 1000 nM

Fill in the blank: the reported IC50 of CNC(=O)[C@@H]1CN(C(=O)CCCc2ccc3c(c2)NCCC3)C[C@H]1NC(=O)CC(CC(=O)O)c1ccccc1 (stereo partly drawn) is ____. 100 to 1000 nM

Please give the measured IC50 for this molecule: "CC1(C)CN(c2cccc([C@H](CC(=O)O)NC(=O)[C@@H]3CCCN(CCCc4ccc5c(n4)NCCC5)C3)c2)CC(C)(C)C1" < 100 nM

Given the molecule "O=C(NC[C@H](Nc1cccc(C2CC(F)(F)C2)c1)C(=O)O)[C@@H]1CCCN(CCCc2ccc3c(n2)NCCC3)C1" , what is its reported IC50? < 100 nM

Bench note: what IC50 did O=C(O)CC(NC(=O)[C@@H]1CCCN(CCCc2ccc3c(n2)NCCC3)C1)c1ccc2c(c1)CCO2 (stereo partly drawn) [Compound 213, hydrochloride] show? < 100 nM

Dear colleague, I am looking for the recorded IC50 of the following molecule: "O=C(O)[C@@H](CO[C@@H]1CCCN(CCCCc2ccc3c(n2)NCCC3)C1)NC(=O)C12CCC(CC1)CC2" > 1000 nM

Query (molecule): "CN1CCc2cc(S(=O)(=O)N[C@@H](CNC(=O)[C@@H]3CCCN(CCCc4ccc5c(n4)NCCC5)C3)C(=O)O)ccc21" ; field requested: IC50 < 100 nM

For O=C(O)C[C@H](NC(=O)[C@@H]1CCCN(CCCc2ccc3c(n2)NCCC3)C1)c1cccc(N2CC3CCC2CO3)c1 (single isomer, unassigned) [Compound 241-A] , what is its reported IC50? < 100 nM

Tell me the measured IC50 of O=C(O)C[C@H](NC(=O)[C@@H]1CCCN(CCCc2ccc3c(n2)NCCC3)C1)c1cccc(C(F)(F)F)c1 (single isomer, unassigned) [Compound 203-A, hydrochloride] , please. 100 to 1000 nM

Reference source: patent US20240208968A1
